Source: paper PMC7864192

- Tested on: GCPA028 T1.II patient-derived AGCT cell line
- Protocol details: Cell viability drug screen (Cell Titer Glo 2.0, 72 h), mono- and combination therapy, GCPA028
- Settings: read-out: IC50 in monotherapy; GCPA028, monotherapy
pIC50: −log10 of the molar value.
Record form. Attribute: pIC50. Fill in for each entry.

INSERT INTO assay_data (molecule, reported_metric, experimental_value) VALUES
  ('Nc1nc2c(ncn2[C@H]2C[C@H](O)[C@@H](CO)O2)c(=S)[nH]1 [6thio-2dG, 6-THIO-2dG]', 'pIC50', '< 4.30');

Turning now to a further record.
**Query** // pIC50 lookup, key: N.N.O=C([O-])C1(C(=O)[O-])CCC1.[Pt+2] [Carboplatin]
**Result** < 3.30
